So I've got a bunch of compounds here, and I need their normalized growth values.
# test_description: chemical genetic growth profiling, strain panel (AID 1159580);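 note: tested at 20 µM; growth read once vehicle control cultures reached saturation at 30 °C; 1 = growth at the plate median or of vehicle wells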
# experimental_conditions: S. cerevisiae deletion strains, growth OD, locus YPL256C, strain CLN2, hits give low values
The campaign covered roughly 5,500 compounds. About 2,000 (36%) were called active. Inconclusive results (about 18%) are left out. This is one part of the list.
Please reply with the number alone, leaving off any unit.

Consider CCN(CCCCOC(=O)c1ccc(OC)c(OC)c1)C(C)Cc1ccc(OC)cc1 (centres undefined) . Its measured normalized growth is 0.961

Per the record, CC[C@]12C=CCN3CC[C@@]4(c5ccc(OC)cc5N(C)C4[C@@](O)(C(=O)OC)[C@@H]1OC(C)=O)[C@@H]32 (some centres undefined) has normalized growth of 0.923

Reported normalized growth ( CC1(C)O[C@@H]2CC3C4CCC5=CC(=O)C=C[C@]5(C)[C@@]4(F)[C@@H](O)C[C@]3(C)[C@]2(C(=O)CO)O1 (some centres undefined) ) = 0.97

Record `CN(C(=O)N(C)c1ccc(Cl)cc1C(=O)c1ccccc1Cl)c1ccc(Cl)cc1C(=O)c1ccccc1Cl` , field normalized growth: 0.508

====

# test_description: chemical genetic growth profiling, strain panel (AID 1159580)
# experimental_conditions: S. cerevisiae deletion strains, growth OD, locus YNL209W, strain ssb2, hits give low values
In all, about 5,500 compounds went through this assay and about 2,000 (36%) were called active. Roughly 18% stayed inconclusive and do not appear here. This is one part of the list.
observable: normalized growth
A bare number is all that is needed in reply.

Sample CN(C)C(=O)Oc1cc(OC(=O)N(C)C)cc(C(O)CNC(C)(C)C)c1 (stereo unspecified) ; normalized growth observed: 1.02

`Nc1nnc(-c2cccc(Cl)c2Cl)c(N)n1` has a reported normalized growth of 1.02

Lab book: normalized growth of COc1cc([C@@H]2c3cc4c(cc3C(O[C@@H]3O[C@@H]5CO[C@@H](c6cccs6)OC5[C@H](O)[C@H]3O)C3COC(=O)[C@@H]32)OCO4)cc(OC)c1O (stereo partly specified) noted as 0.985

Lab book: normalized growth of `CC(C)=CCc1c2c(c(O)c3c(=O)c(O)c(-c4ccccc4)oc13)C=CC(C)(C)O2` noted as 0.277

Summary for this compound, C=CCCCCCCCCCCCC(O)CC(O)CO (stereo unspecified) : normalized growth is 1

Short answer for `N[C@H](CO)Cc1ccccc1` : normalized growth was 1.01

====

# test_description: chemical genetic growth profiling, strain panel (AID 1159580)
# experimental_conditions: S. cerevisiae deletion strains, growth OD, locus YMR125W, strain sto1
Among all 5,500 compounds or so, about 2,000 (36%) were called active. Not shown: some 18% with an inconclusive outcome. No stated cut-off is given here; in the data, active means normalized growth mostly below about 0.91 (no sharp cut-off); inconclusive means no clear call, values can overlap the other calls; inactive means mostly above about 0.92. The list shows a part of the results.
Lab note: assign the record to one of true (active), false (inactive)

So what was the verdict on CC(C)(C)C(=O)C(Oc1ccc(Cl)cc1)n1cncn1 (stereo unspecified) in this test? true

Which outcome was entered for the compound `CC(=O)Oc1cc(-c2coc3cc(OC(C)=O)c(OC(C)=O)c(OC(C)=O)c3c2=O)cc(OC(C)=O)c1OC(C)=O` in this test? false

Hi, sorry to bother you, what did the test record for `O=C1CCc2cc(OCCCCc3nnnn3C3CCCCC3)ccc2N1` ? false

Tell me the recorded outcome of this test for `O=c1c(-c2cc(O)c(O)c(O)c2)coc2cc(O)c(O)c(O)c12` . false

What call does the record list for `O=c1c(-c2ccccc2)coc2cc(O)cc(O)c12` ? false

For this compound, state the assay outcome: `Nc1nc(N)c2nc(-c3ccccc3)c(N)nc2n1` false

====

Provide the reported normalized growth of each item.
# test_description: chemical genetic growth profiling, strain panel (AID 1159580)
# experimental_conditions: S. cerevisiae deletion strains, growth OD, locus YOR231W, strain MKK1, hits give low values
In all, about 5,500 compounds went through this assay and about 2,000 (36%) were called active. Roughly 18% stayed inconclusive and do not appear here. Some of the results follow.

Record `CC(=O)Nc1ccc(OC(=O)c2ccccc2O)cc1` . Reported normalized growth: 0.909 (inactive)

// recorded normalized growth for `CCn1cc(C(=O)O)c(=O)c2cc(F)c(N3CCNCC3)cc21` : 0.988 (inactive)

Consider `O=C(O)c1cc(=O)c2ccccc2o1` . Its measured normalized growth is 1.07 (inactive)

normalized growth reading for CC(=O)CC(c1ccccc1)c1c(O)c2ccccc2oc1=O (configuration not stated) : 0.983 (inactive)

Entry `CC1=CCc2c(cc3oc(C)cc(=O)c3c2O)OC1` , normalized growth reported as 0.958 (inactive)

Record `ClC(Cl)=C(c1ccc(Cl)cc1)c1ccc(Cl)cc1` . Reported normalized growth: 1.04 (inactive)

Briefly, normalized growth measured for `O=c1oc2ccccc2c(O)c1Cc1c(O)c2ccccc2oc1=O` : 0.954 (inactive)

Per the records, this compound ( `CC(=O)Nc1ccc(O)cc1` ) has normalized growth equal to 0.997 (inactive)

# normalized growth (compound: `Clc1ccccc1N/N=C\Cc1nnnn1-c1ccccc1` ) is 0.845 (inactive)

Consider `CCN(CC)CCNC(=O)c1ccc(NC(C)=O)cc1` . Its measured normalized growth is 1.04 (inactive)

Data point: `O=c1c2ccccc2oc2ccccc12` ; normalized growth = 0.836 (active)

In plain terms, `O=C1CC[C@]23C=CC(=O)NCCCCNCCCNC(=O)/C=C/c4ccc(c2c4)O[C@@H]3C1` has a documented normalized growth of 1.03 (inactive)

====

# test_description: chemical genetic growth profiling, strain panel (AID 1159580);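 note: tested at 20 µM; growth read once vehicle control cultures reached saturation at 30 °C; 1 = growth at the plate median or of vehicle wells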
# experimental_conditions: S. cerevisiae deletion strains, growth OD, locus YLL001W, strain dnm1, hits give low values
Hit rate of the full screen: of about 5,500 compounds, about 2,000 (36%) were called active. Inconclusive results (about 18%) are left out. This is one part of the list.
The threshold is 1. Values of normalized growth beneath it are tagged yes; values meeting or exceeding it are tagged no.

Take the molecule `NCC(=O)CCC(=O)O` and say whether its normalized growth is less than 1. yes

normalized growth strictly < 1 for this molecule? CC(=O)O[C@@H]1CC2C(C)(C)C(=O)CC[C@]2(C)C2CC[C@@]3(C)[C@H](c4ccoc4)OC(=O)C4OC43[C@@]21C (some centres undefined) yes

Just wondering, is normalized growth of `CCCCCCCCCCCCCCCC[n+]1ccccc1` below 1? yes

Hi there! Is normalized growth for `COc1ccc(-c2cc(=O)c3ccccc3o2)cc1` below 1, do you know? yes

Hi there! Is normalized growth for `CC(C)Oc1ccc2c(=O)cc(-c3ccccc3)oc2c1` below 1, do you know? yes

Consider the molecule `COc1cc2c3cc1Oc1cc(ccc1O)C[C@@H]1c4c(cc(OC)c(O)c4Oc4ccc(cc4)C[C@@H]3N(C)CC2)CC[N+]1(C)C` . Is its normalized growth strictly less than 1? no

====

# test_description: chemical genetic growth profiling, strain panel (AID 1159580);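 note: tested at 20 µM; growth read once vehicle control cultures reached saturation at 30 °C; 1 = growth at the plate median or of vehicle wells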
# experimental_conditions: S. cerevisiae deletion strains, growth OD, locus YDL074C, strain BRE1, hits give low values
The whole screen tested about 5,500 compounds, of which about 2,000 (36%) were called active. Inconclusive results (about 18%) are left out. The list shows a part of the results.
Threshold 1. normalized growth below it: YES. normalized growth at it or above: NO.

Quick check: does `COc1c2c(cc3c1OCO3)CC[N+](C)=C2` have normalized growth under 1? NO

Just wondering, is normalized growth of `COc1ccc2cc3[n+](cc2c1OC)CCc1cc2c(cc1-3)OCO2` below 1? YES

Lab note: normalized growth threshold 1. Does this compound come in strictly under it? `C[n+]1cc2c3c(ccc2c2ccc4cc5c(cc4c21)OCO5)OCO3` YES

Regarding CCOC(=O)C1C(C=C(C)C)C1(C)C (configuration not stated) , kindly confirm whether its normalized growth is beneath 1. NO

====

# test_description: chemical genetic growth profiling, strain panel (AID 1159580);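 note: tested at 20 µM; growth read once vehicle control cultures reached saturation at 30 °C; 1 = growth at the plate median or of vehicle wells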
# experimental_conditions: S. cerevisiae deletion strains, growth OD, locus YNR049C, strain mso1, hits give low values
In all, about 5,500 compounds went through this assay and about 2,000 (36%) were called active. Not shown: some 18% with an inconclusive outcome. The list shows a part of the results.
Checkbox rule: normalized growth lower than 1 = True; normalized growth not lower than 1 = False.

Would you kindly verify if normalized growth of `CC(C)Oc1ccc2c(=O)cc(-c3ccccc3)oc2c1` is strictly less than 1? True

Lab note: normalized growth threshold 1. Does this compound come in strictly under it? `COc1ccc(-c2cc(=O)c3ccccc3o2)cc1` True

Below 1 on normalized growth? Entry `CC(=O)Nc1ccc(OC(=O)c2ccccc2O)cc1` True

Strictly below 1: is that where normalized growth of `O=c1c2ccccc2oc2ccccc12` sits? True

Just wondering, is normalized growth of CC(C)(C)C(=O)C(Oc1ccc(Cl)cc1)n1cncn1 (stereo unspecified) below 1? True

Hi there! Is normalized growth for CN1CCOC(c2ccccc2)c2ccccc2C1 (stereo unspecified) below 1, do you know? True

Does the reported normalized growth of the following compound sit strictly below 1? `COC(=O)C1=C(C)NC(C)=C(C(=O)OC)C1c1ccccc1[N+](=O)[O-]` True

Identify whether the compound `O=C1c2c(O)ccc(O)c2C(=O)c2c(NCCNCCO)ccc(NCCNCCO)c21` records normalized growth below 1. True

Please state whether normalized growth is below 1 for `CC(=O)Nc1ccc(O)cc1` False

normalized growth strictly < 1 for this compound? `Nc1nnc(-c2cccc(Cl)c2Cl)c(N)n1` False

Is normalized growth of `COc1ccc(-c2cc(=O)c3ccccc3o2)cc1OC` strictly below 1? True

Hello, is normalized growth of the following compound strictly smaller than 1? `CCCCCCCCCc1ccc(O)cc1` True
